// data source = patent US11992494B2

Answer each item with its documented IC50.
- target.of.assay: PAFR (Homo sapiens, UniProt P25105)
- Sequence (P25105 whole entry): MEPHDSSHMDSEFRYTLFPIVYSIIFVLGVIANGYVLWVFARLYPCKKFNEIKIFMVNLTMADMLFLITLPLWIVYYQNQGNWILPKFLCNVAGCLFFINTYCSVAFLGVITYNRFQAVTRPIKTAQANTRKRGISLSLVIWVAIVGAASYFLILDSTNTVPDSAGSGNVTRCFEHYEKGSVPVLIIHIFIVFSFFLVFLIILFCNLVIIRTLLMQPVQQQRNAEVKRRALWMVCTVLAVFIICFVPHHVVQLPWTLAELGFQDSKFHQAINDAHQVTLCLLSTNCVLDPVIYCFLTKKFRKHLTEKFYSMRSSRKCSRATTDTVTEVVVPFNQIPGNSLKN
- experimental.details: cellular HTRF IP1 assay: inhibition of PAFR activation by PAF C-16 ligand (endpoint assay)
- Format: cell-based
- Design: expressed in transfected cells; host or cells: HEK293
- run.conditions: HEK293 cells overexpressing human PAFR; PAF ligand 11 nM; Table 2
Numbers only, in nM.

Cc1nnc2n1-c1sc3c(c1C(c1ccccc1Cl)=NC21CC1)C[C@H](C(=O)NC1CCCC1)C3 = 1.9
Cc1nnc2n1-c1sc3c(c1C(c1ccccc1Cl)=NC21CC1)C[C@H](C(=O)N(C)C1CCOCC1)C3 = 6.6
Cc1nnc2n1-c1sc3c(c1C(c1ccccc1Cl)=NC21CC1)C[C@H](C(=O)N1C[C@@H](C)O[C@H](C)C1)C3 = 5
Cc1nnc2n1-c1sc3c(c1C(c1ccccc1Cl)=NC21CC1)C[C@H](C(=O)NC1CCC12CCOCC2)C3 (some centres unmarked) = 8.6
CCOC(=O)N1CCC(N(C)C(=O)[C@@H]2Cc3sc4c(c3C2)C(c2ccccc2Cl)=NC2(CC2)c2nnc(C)n2-4)CC1 = 4.9
Cc1nnc2n1-c1sc3c(c1C(c1ccccc1Cl)=NC21CC1)C[C@H](C(=O)NC1(CO)CCCCC1)C3 = 3.9
Cc1nnc2n1-c1sc3c(c1C(c1ccccc1Cl)=NC21CC1)C[C@H](C(=O)N[C@@H]1CCc2cc(C#N)ccc21)C3 = 1.7
CCN(C(=O)[C@@H]1Cc2sc3c(c2C1)C(c1ccccc1Cl)=NC1(CC1)c1nnc(C)n1-3)[C@H]1CC[C@H](O)CC1 = 11
Cc1nnc2n1-c1sc3c(c1C(c1ccccc1Cl)=NC21CC1)C[C@H](C(=O)N(C)[C@@H]1CCCC[C@@H]1O)C3 = 3.9
CC[C@@H]1C[C@H]2O[C@@H]1C[C@H]2NC(=O)[C@@H]1Cc2sc3c(c2C1)C(c1ccccc1Cl)=NC1(CC1)c1nnc(C)n1-3 = 6

Parameters: items (list). Returns: IC50 for each item.
1. Cc1nnc2n1-c1sc3c(c1C(c1ccccc1Cl)=NC21CC1)C[C@H](C(=O)N(C)C1CCS(=O)(=O)C1)C3 (some centres unmarked)
2. Cc1nnc2n1-c1sc3c(c1C(c1ccccc1)=NC21CC1)C[C@H](C(=O)N1CCOCC1)C3
3. Cc1nnc2n1-c1sc3c(c1C(c1ccccc1Cl)=NC21CC1)C[C@H](C(=O)N1CCC(F)(F)C1)C3

Result:
1: 15; 2: 14; 3: 3.6

Consider Cc1nnc2n1-c1sc3c(c1C(c1ccccc1Cl)=NC21CC1)C[C@H](C(=O)NC1COCC(F)(F)C1)C3 (some centres unmarked) . Its measured IC50 is 3.7

====

- target.of.assay: PAFR (Homo sapiens, UniProt P25105)
- experimental.details: cellular HTRF IP1 assay: inhibition of PAFR activation by PAF C-16 ligand (endpoint assay)
- Format: cell-based
- Set-up: expressed in transfected cells; host or cells: HEK293
- run.conditions: HEK293 cells overexpressing human PAFR; PAF ligand 11 nM; Table 2
For each record, check the reported IC50: if it is below 2 nM write 1 (yes), else write 0 (no).

Consider the following illustrative entries.
Cc1noc(C)c1NC(=O)[C@@H]1Cc2sc3c(c2C1)C(c1ccccc1Cl)=NC1(CC1)c1nnc(C)n1-3 = 0 (no)
Cc1nnc2n1-c1sc3c(c1C(c1ccccc1Cl)=NC21CC1)C[C@H](C(=O)N[C@@H](C)CF)C3 = 0 (no)
Cc1nnc2n1-c1sc3c(c1C(c1ccccc1Cl)=NC21CC1)C[C@H](C(=O)N[C@H]1CCc2ccccc2C1)C3 = 1 (yes)
Cc1nnc2n1-c1sc3c(c1C(c1ccccc1Cl)=NC21CC1)C[C@H](C(=O)N(C)C1CCCCCC1)C3 = 1 (yes)

Problem: Hi there! Is IC50 for "Cc1nnc2n1-c1sc3c(c1C(c1ccccc1Cl)=NC21CC1)C[C@H](C(=O)NC1(c2ccccc2)CCOCC1)C3" below 2 nM, do you know?
Result: 0 (no)

Problem: Hi there! Is IC50 for "Cc1nnc2n1-c1sc3c(c1C(c1ccccc1Cl)=NC21CC1)C[C@H](C(=O)NC1CCCCC1)C3" below 2 nM, do you know?
Result: 1 (yes)

Problem: Hi there! Is IC50 for "Cc1nnc2n1-c1sc3c(c1C(c1ccccc1Cl)=NC21CC1)C[C@H](C(=O)N[C@H]1C[C@@H]1C)C3" below 2 nM, do you know?
Result: 0 (no)
